study.system: recombinant human CK2 (RRββ-holoenzyme) (Homo sapiens)
Sequence (P68400 whole entry): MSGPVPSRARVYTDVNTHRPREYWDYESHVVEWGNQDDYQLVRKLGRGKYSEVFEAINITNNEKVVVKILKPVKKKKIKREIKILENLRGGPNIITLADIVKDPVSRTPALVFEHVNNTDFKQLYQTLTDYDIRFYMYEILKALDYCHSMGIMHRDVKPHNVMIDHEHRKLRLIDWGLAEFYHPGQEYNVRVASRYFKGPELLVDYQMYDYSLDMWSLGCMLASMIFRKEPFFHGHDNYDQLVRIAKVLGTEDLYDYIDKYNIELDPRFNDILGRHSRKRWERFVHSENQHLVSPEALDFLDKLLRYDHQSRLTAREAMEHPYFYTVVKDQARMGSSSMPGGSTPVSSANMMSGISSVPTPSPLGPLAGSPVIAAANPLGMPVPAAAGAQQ
Sequence (P67870 whole entry partner): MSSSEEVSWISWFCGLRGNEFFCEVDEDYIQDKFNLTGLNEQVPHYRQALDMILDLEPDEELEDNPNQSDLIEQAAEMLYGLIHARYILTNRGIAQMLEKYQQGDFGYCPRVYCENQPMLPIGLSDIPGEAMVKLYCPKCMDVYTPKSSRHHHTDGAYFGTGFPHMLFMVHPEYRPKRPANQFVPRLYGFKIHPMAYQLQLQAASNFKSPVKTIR
experiment.notes: CK2 Kinase Assay (33P-ATP, filter plate)
condition.description: final ATP 15 μM, 10 min at 30° C., eight concentrations; read-out: protein kinase CK2 IC50
Description: CK2 Kinase Assay was conducted using the protocol as described in Pierre F. et al; J. Med. Chem. 2011, 54, 635-654. […]
endpoint.label: IC50 (nM)
Hi! Could you send only the number? It should be in nM, unit omitted.

QUERY: Read the entry `Clc1cccc(Nc2nc3c(nc4cnccn43)c3ccncc23)c1` and write its reported IC50.
RESULT: 22
